Data provenance: patent US20260062463A1

Assayed target: T1, AAV5 (adeno-associated virus 5, Assembled 60-mer capsid of VP1/VP2/VP3 (nested products of one cap gene), amine-coupled to a CM5 chip; the letters give one VP1 subunit only.)
T1 construct: also called adeno-associated virus serotype 5
Method: SPR, AAV amine-coupled to CM5 chip
koff listing for selected binders.
Report the value in s⁻¹ with no unit label.

>>> observed_result("A4-C7 (bispecific antibody) VQLQESGGGLVQPGGSLRLSCAASGSNFSINTMGWYRQAPGKQRELVATVTRGGDTNYADSVKGRFTISRDNAKNTVYLQMNSLRPEDTAVYYCHVDEIRESSWTTSNLWGQGTQVTVSSGGGGSGGGGSGGGGSVQLQESGGGLVQPGGSLRLSCAASGSNFRINTMGWYRQAPGKQRELVAPVTRGGSTNYADSVKGRFTISRDNAKNTVYLQMNSLRPEDTAVYYCHVDEVRESSWTTSNLWGQGTQVTVSSGGGGSGGGGSGGGGSVQLQESGGGLVQPGGSLRLSCAASGSSFTINTMGWYRQAPGKQRELVAAVTRGGSTNYAGSVKGRFTISRDNAKNTIYLQMNSLRPEDTAVYYCHVDEIRQSSWTTSNLWGQGTQVTVSS")
"3.2e-05"
>>> observed_result("A4-C4 (bispecific antibody) VQLQESGGGLVQAGGSLRLSCAASGSRFSINTMGWYRQAPGKQREFVATVTRGGNTNYAESVKGRFTISRDNAKNTVYLQMNSLRPEDTAVYYCHVDEVRDSSWTTSNIWGQGTQVTVSSGGGGSGGGGSGGGGSVQLQESGGGLVQAGGSLRLSCAASGSRFSINTMGWYRQAPGKQREFVATVTRGGNTNYAESVKGRFTISRDNAKNTVYLQMNSLRPEDTAVYYCHVDEVRDSSWTTSNIWGQGTQVTVSSGGGGSGGGGSGGGGSVQLQESGGGLVQPGGSLRLSCAASGSNFRINTMGWYRQAPGKQRELVATVTRGGSTNYADSVKGRFTISRDNPKDTVYLQMNSLRPEDTAVYYCHVDEVRESSWTTSNLWGQGTQVTVSS")
0.00121

Prompt: Field request: koff | item: A4-C8 (bispecific antibody) VQLQESGGGLVQPGGSLRLSCAASGSNFRINTMGWYRQAPGKQRELVAPVTRGGSTNYADSVKGRFTISRDNAKNTVYLQMNSLRPEDTAVYYCHVDEVRESSWTTSNLWGQGTQVTVSSGGGGSGGGGSGGGGSVQLQESGGGLVQPGGSLRLSCAASGSNFSINTMGWYRQAPGKQRELVATVTRGGDTNYADSVKGRFTISRDNAKNTVYLQMNSLRPEDTAVYYCHVDEIRESSWTTSNLWGQGTQVTVSSGGGGSGGGGSGGGGSVQLQESGGGLVQPGGSLRLSCAASGSNFSINTMGWYRQAPGKQRELVAALTRGGSTNYADSVKGRFTISRDNAKNTVYLQMNSLRPEDTAVYYCHVDEVRESSWTTSNLWGQGTQVTVSS
Response: 0.00013
